Source of measurements: paper PMC9482650

# Tested On: NHERF4_1, Q86UT5-2
# Sequence (Q86UT5 other isoform, or with tags, fused parts or gaps): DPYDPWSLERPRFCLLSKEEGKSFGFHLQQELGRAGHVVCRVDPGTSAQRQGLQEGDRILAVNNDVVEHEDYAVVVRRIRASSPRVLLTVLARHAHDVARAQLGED
# Protocol Summary: holdup assay
# Set-up: key: below the threshold = too weak to quantify, mostly under pKd 3.1 to 4
# Recorded Conditions: plain residues with an end cap or a label only (N-terminal biotin on a linker: ttds)
Readout Type: pKd

STLTIFETAL [ABCC4, O15439] : 4.61
SSRTRRETQL [HPV16-E6, P03126] : 4.25
PKTPPTDTSV [KIR3DL3, Q8N743] : below the threshold
QSARYRDTEL [TJP2, Q9UDY2] : 3.73
IYVPEAQTRL [DLGAP4, Q9Y2H0] : 3.65

Tell me the measured pKd of SVWLRKETRV [CYSLTR2, Q9NS75] , please.
below the threshold

Thanks! And RSLEEEESQL [GRASP, Q7Z6J2] ?
3.9

Same read-out for VLRLQSETSV [VANGL1, Q8TAA9] ?
below the threshold
